Tested on: human SMAD7 mRNA
Assay: Dose-dependent inhibition of human SMAD7 mRNA expression in Hep3B cells, comparison with ION 28453 (Example 4)
Format: cell-based
Details: electroporation, 0.25 μM, approximately 16 hours
Experimental: Cells were plated at a density of 20,000 cells per well and transfected using electroporation with 0.25 μM, 0.74 μM, 2.22 μM, 6.67 μM, or 20.00 μM concentrations of antisense oligonucleotide, as specified in the Tables below. After a treatment period of approximately 16 hours, RNA was isolated from the cells and SMAD7 mRNA levels were measured by quantitative real-time PCR. […] SMAD7 mRNA levels were adjusted according to total RNA content, as measured by RIBOGREEN®. […]
Strand notation (5' to 3'): a small letter for the sugar, then the base; units joined by * are phosphorothioate-linked, units joined directly phosphodiester-linked; [ ] holds rarer units or linkages, { } end groups; capitals alone tell only the bases. k = constrained ethyl (cEt); [5mC] = 5-methylcytosine; d = 2'-deoxy (DNA)
Entries and their % inhibition of SMAD7 mRNA expression values follow.
Only the number, expressed in %, is required.

Example substances with recorded % inhibition of SMAD7 mRNA expression:
substance	units_symbol	% inhibition of SMAD7 mRNA expression
801040 (antisense kG*kT*k[5mC]*dA*dT*dG*dA*dA*dA*dG*dA*dT*dT*k[5mC]*kT*kT) [compound 801040]	%	31
800821 (antisense kG*k[5mC]*kT*dA*dA*dA*dT*dT*dT*d[5mC]*d[5mC]*dA*dA*kT*kG*kA) [compound 800821]	%	14
798781 (CGTAAGATTCACAGCA; 3-10-3 cEt gapmer, further chemistry not given here) [compound 798781]	%	12
799184 (antisense kA*kA*k[5mC]*d[5mC]*dT*dT*dT*dG*dT*dA*dG*dT*dT*kA*kG*kA) [compound 799184]	%	0

Please look at the following substance next.
Please give the measured % inhibition of SMAD7 mRNA expression for this substance: 801051 (antisense kG*kT*kG*dT*dT*d[5mC]*dA*dA*d[5mC]*dA*dA*dT*dG*k[5mC]*kT*kT) [compound 801051] 0

----------
system: human SMAD7 mRNA; assay: Antisense inhibition of human SMAD7 mRNA expression in Hep3B cells by 5-10-5 MOE gapmers, single concentration, electroporation, RT-PCR (Example 1, Study 1 and 2); assay type: cell-based; conditions: electroporation with 15,000 nM antisense oligonucleotide (Study 2), 5-10-5 MOE gapmers targeting SEQ ID NO: 1 and 2
Strand notation (5' to 3'): a small letter for the sugar, then the base; units joined by * are phosphorothioate-linked, units joined directly phosphodiester-linked; [ ] holds rarer units or linkages, { } end groups; capitals alone tell only the bases. e = 2'-O-(2-methoxyethyl) (MOE); [5mC] = 5-methylcytosine; d = 2'-deoxy (DNA)
Criterion: % Inhibition of SMAD7 mRNA meeting or surpassing 30%. Met: YES. Not met: NO.

Below are worked cases with known answers.
substance	group_label
771568 (antisense e[5mC]*eT*eG*e[5mC]*eA*dA*dA*d[5mC]*d[5mC]*dT*d[5mC]*dT*d[5mC]*dT*dG*e[5mC]*eT*eG*eG*eG) [compound 771568]	NO
771696 (antisense e[5mC]*eT*e[5mC]*eT*e[5mC]*d[5mC]*d[5mC]*dA*dG*dG*dA*dG*dG*dG*dT*eA*eT*eG*e[5mC]*eA) [compound 771696]	NO

Reported % Inhibition of SMAD7 mRNA at or above 30%? 771608 (antisense e[5mC]*eT*eG*eG*eG*dT*dG*dA*dG*d[5mC]*dA*dA*dT*dA*d[5mC]*eT*eG*eT*eG*eA) [compound 771608] YES

Reported % Inhibition of SMAD7 mRNA at or above 30%? 771512 (antisense eA*eG*eT*eA*eG*dT*dT*dT*dG*dA*dA*dG*dT*dG*dT*eG*eG*e[5mC]*e[5mC]*eT) [compound 771512] YES

Reported % Inhibition of SMAD7 mRNA at or above 30%? 771363 (antisense eT*e[5mC]*eA*eG*eG*d[5mC]*dT*dT*d[5mC]*dA*d[5mC]*dT*dG*d[5mC]*d[5mC]*e[5mC]*eA*eT*e[5mC]*eG) [compound 771363] YES
